Tested on: Chaetomium globosum
Assay: 6-well plate assay, minimal inhibitory concentration
Type: cell-based
Conditions: Chaetomium globosum, 168 h, read-out: Effectiveness at Inhibiting Wood-Rotting Fungi, SR1 (minimal inhibitory concentration)
Measured metric: MIC

1) CC1=C(C(=O)Nc2ccccc2)SCCO1 [Carboxin]; 1 to 100 mg/L
2) O=[N+]([O-])c1c(Cl)c(Cl)c(Cl)c(Cl)c1Cl [Pentachloronitrobenzene]; < 1 mg/L
3) CCCN(CCOc1c(Cl)cc(Cl)cc1Cl)C(=O)n1ccnc1 [Prochloraz]; < 1 mg/L

[in] Fill in the blank: the reported MIC of Oc1cccc2cccnc12 [8-Hydroxyquinoline] is ____.
[out] > 100 mg/L
